Assay: JC-1 mitochondrial signal, unstimulated myeloma cells – cell-based, JC-1 fluorescence, RPMI8226, 24 h, 100 nL compound, profiling panel (AID 1169); further: test concentration not given here
Conditions: JC-1 mitochondrial potential fluorescence, higher = more signal
endpoint: z-score
Response field accepts a number only; no unit should be typed.

Q: # get_value(readout='z-score', item= `C=CC[C@]1(C(=O)NCc2ccccc2)N=C(c2ccc(OCCCO)cc2)O[C@H]1c1ccccc1CN=[N+]=[N-]` )
A: -0.787

Q: Please do the same for CC(CO)N1C(=O)[C@@H]2C3C(=O)OCCC/C=C\[C@H]3OC23C=CCN(CCN2CCOCC2)C(=O)[C@@H]13 (stereo partly drawn) as well.
A: 0.357

Q: Please do the same for `COCCCNC(=O)[C@@]1(Cc2ccccc2CN=[N+]=[N-])N=C(c2ccc(OCCCO)cc2)O[C@H]1c1ccccc1CN=[N+]=[N-]` as well.
A: -1.2

Q: Please do the same for `COc1ccc([Si](C)(C)[C@@H]2[C@@H](CCn3cc(CCO)nn3)O[C@]3(C(=O)N(Cc4cccc(N5C(=O)c6cccc7cccc5c67)c4)c4ccccc43)[C@H]2C)cc1` as well.
A: -0.931

Q: Please do the same for `COCCOC(=O)N1C(=O)[C@@]2(c3cc(C#CC4=CCCCC4)ccc31)[C@H](c1ccc(OCCO)cc1)N1[C@H](c3ccccc3)[C@H](c3ccccc3)OC(=O)[C@H]1[C@@H]2C(=O)N1CCc2cc(OC)c(OC)cc2C1` as well.
A: -0.521

Q: Please do the same for `COc1ccc([Si](C)(C)[C@@H]2[C@@H](CCO)O[C@]3(C(=O)N(Cc4cccc(N5CCOC5=O)c4)c4ccccc43)[C@H]2C)cc1` as well.
A: -0.978

Q: Please do the same for `C=CCN1C(=O)[C@]2(O[C@H](CCO)[C@@H]([Si](C)(C)c3ccc(OC)cc3)[C@@H]2C)c2cc(N(C=O)c3ccccc3)ccc21` as well.
A: -0.993

Q: Please do the same for `O=C1O[C@@H](c2ccccc2)[C@@H](c2ccccc2)N2[C@@H](c3ccccc3OCCO)[C@]3(C(=O)Nc4ccc(C#CC5(O)CCCCCC5)cc43)[C@@H](C(=O)N3CCN(c4ncccn4)CC3)[C@H]12` as well.
A: -1.04

Q: Please do the same for C=CCC(OC(C)=O)[C@@H]1[C@@H](N(Cc2cc3ccccc3o2)C(=O)Cc2ccc(OC)cc2)c2cc(OCCCO)ccc2N1C(=O)c1ccc2ccccc2c1 (stereo partly drawn) as well.
A: -0.0277

Q: Please do the same for `C[N+](C)(C)CCCCCCNC(=O)[C@H]1C[C@H]2C(=O)N[C@@H](Cc3ccccc3)C(=O)N2[C@H]1c1cccc(OCCO)c1` as well.
A: -0.186

Q: Please do the same for O=C1NC(=O)C2C1C=CC(C(O)c1ccc(-c3ccccc3)s1)N2Nc1ccc(Cl)cc1Cl (stereo not drawn) as well.
A: -0.983

Q: Please do the same for `COC(=O)[C@]1(Cc2ccccc2)N=C(c2ccc(OCCCO)cc2)O[C@@H]1c1ccccc1N=[N+]=[N-]` as well.
A: -1.13

Q: Please do the same for `COC(=O)c1c2oc(c1C(=O)OC)C(=O)N[C@@H](C(C)C)Cn1cc(nn1)C1(CCCCC1)NC(=O)N[C@H](CO)CC2` as well.
A: -0.159
